molecular target: human Vitamin D Receptor (VDR), VDR (gene 7421); test: ATG_VDR_TRANS: Attagene TRANS-FACTORIAL HepG2 Assay for human Vitamin D Receptor (VDR) (AID 2283022)
Results filed as inconclusive are left out. The source made the active and inactive calls. The calls were made as follows: active = hit-call score of the fitted dose curve at least 0.9, where 1 is the maximum; inconclusive = response in the unintended direction; inactive = score below 0.9.
Outcome codes: true (active), false (inactive)

[
  {
    "smiles.notation": "CN(C[C@@H](CC[N+]12CCC(C3CCCCC3)(CC1)CC2)c1ccc(Cl)c(Cl)c1)C(=O)c1cc(C(F)(F)F)cc(C(F)(F)F)c1",
    "measured.target": "human Vitamin D Receptor (VDR), VDR (gene 7421)",
    "qualitative.label": "false"
  },
  {
    "smiles.notation": "CCO[Si](CCCNC(N)=O)(OCC)OCC",
    "measured.target": "human Vitamin D Receptor (VDR), VDR (gene 7421)",
    "qualitative.label": "false"
  },
  {
    "smiles.notation": "CC(C)(O)c1ccc(CNC(=O)c2cccnc2Oc2ccc3nonc3c2)cc1",
    "measured.target": "human Vitamin D Receptor (VDR), VDR (gene 7421)",
    "qualitative.label": "false"
  },
  {
    "smiles.notation": "CCCCCCCCCC(=O)O",
    "measured.target": "human Vitamin D Receptor (VDR), VDR (gene 7421)",
    "qualitative.label": "false"
  },
  {
    "smiles.notation": "O=CCCCC=O",
    "measured.target": "human Vitamin D Receptor (VDR), VDR (gene 7421)",
    "qualitative.label": "false"
  },
  {
    "smiles.notation": "COc1ccc2cc(S(=O)(=O)N[C@H](CC(=O)N[C@H](Cc3ccc(CN4[C@H](C)CCC[C@@H]4C)cc3)C(=O)N(C)C(C)C)c3ccc4c(c3)OCO4)ccc2c1",
    "measured.target": "human Vitamin D Receptor (VDR), VDR (gene 7421)",
    "qualitative.label": "false"
  },
  {
    "smiles.notation": "Clc1ccccc1C(c1ccccc1)(c1ccccc1)n1ccnc1",
    "measured.target": "human Vitamin D Receptor (VDR), VDR (gene 7421)",
    "qualitative.label": "false"
  },
  {
    "smiles.notation": "CC(C)(C)c1csc(-c2cc3cc(OCc4ccccc4CC(=O)O)ccc3o2)n1",
    "measured.target": "human Vitamin D Receptor (VDR), VDR (gene 7421)",
    "qualitative.label": "false"
  },
  {
    "smiles.notation": "CCCCCc1ccc(N)cc1",
    "measured.target": "human Vitamin D Receptor (VDR), VDR (gene 7421)",
    "qualitative.label": "false"
  },
  {
    "smiles.notation": "CCCCCCCCCCCC[N+](C)(C)C",
    "measured.target": "human Vitamin D Receptor (VDR), VDR (gene 7421)",
    "qualitative.label": "false"
  },
  {
    "smiles.notation": "CC(=O)N1CCN(c2ccc(OC[C@H]3CO[C@](Cn4ccnc4)(c4ccc(Cl)cc4Cl)O3)cc2)CC1",
    "measured.target": "human Vitamin D Receptor (VDR), VDR (gene 7421)",
    "qualitative.label": "false"
  },
  {
    "smiles.notation": "c1ccc(C[n+]2cccc3ccccc32)cc1",
    "measured.target": "human Vitamin D Receptor (VDR), VDR (gene 7421)",
    "qualitative.label": "false"
  },
  {
    "smiles.notation": "CN(C)C(=O)C1(N2CCCCC2)CCN(CC[C@@]2(c3ccc(Cl)c(Cl)c3)CN(C(=O)c3ccccc3)CCO2)CC1",
    "measured.target": "human Vitamin D Receptor (VDR), VDR (gene 7421)",
    "qualitative.label": "false"
  },
  {
    "smiles.notation": "Cc1oc2c(NC(=O)c3c(Cl)cccc3Cl)cccc2c1C(C)(C)O",
    "measured.target": "human Vitamin D Receptor (VDR), VDR (gene 7421)",
    "qualitative.label": "false"
  },
  {
    "smiles.notation": "Oc1ccc2ccccc2c1",
    "measured.target": "human Vitamin D Receptor (VDR), VDR (gene 7421)",
    "qualitative.label": "false"
  },
  {
    "smiles.notation": "CCCCCCCCCCCO",
    "measured.target": "human Vitamin D Receptor (VDR), VDR (gene 7421)",
    "qualitative.label": "true"
  },
  {
    "smiles.notation": "COc1cc(C(=O)NC2CCN(C)CC2)ccc1Nc1ncc2c(n1)N(C1CCCC1)CC(F)(F)C(=O)N2C",
    "measured.target": "human Vitamin D Receptor (VDR), VDR (gene 7421)",
    "qualitative.label": "false"
  },
  {
    "smiles.notation": "CCN(Cc1cccnc1)C(=O)c1cccc(Cl)c1[C@]1(C)C(=O)N(Cc2ccc(OC)cc2OC)c2ccc(Cl)cc21",
    "measured.target": "human Vitamin D Receptor (VDR), VDR (gene 7421)",
    "qualitative.label": "false"
  },
  {
    "smiles.notation": "Cc1cc(F)ccc1-c1cc(N2CC[C@@H](O)[C@H]2CO)ncc1N(C)C(=O)C(C)(C)c1cc(C(F)(F)F)cc(C(F)(F)F)c1",
    "measured.target": "human Vitamin D Receptor (VDR), VDR (gene 7421)",
    "qualitative.label": "false"
  },
  {
    "smiles.notation": "CCCCCCCCOC(=O)c1cc(O)c(O)c(O)c1",
    "measured.target": "human Vitamin D Receptor (VDR), VDR (gene 7421)",
    "qualitative.label": "true"
  }
]

---

biological target: Neuropeptide Y receptor type 2 (Homo sapiens) (UniProt P49146); assay: NVS_GPCR_hNPY2: NovaScreen (NVS) G Protein-Coupled Receptor Assay for human Neuropeptide Receptor Y2 (NPY2) (AID 2283277)
Sequence (P49146 whole entry, looked up): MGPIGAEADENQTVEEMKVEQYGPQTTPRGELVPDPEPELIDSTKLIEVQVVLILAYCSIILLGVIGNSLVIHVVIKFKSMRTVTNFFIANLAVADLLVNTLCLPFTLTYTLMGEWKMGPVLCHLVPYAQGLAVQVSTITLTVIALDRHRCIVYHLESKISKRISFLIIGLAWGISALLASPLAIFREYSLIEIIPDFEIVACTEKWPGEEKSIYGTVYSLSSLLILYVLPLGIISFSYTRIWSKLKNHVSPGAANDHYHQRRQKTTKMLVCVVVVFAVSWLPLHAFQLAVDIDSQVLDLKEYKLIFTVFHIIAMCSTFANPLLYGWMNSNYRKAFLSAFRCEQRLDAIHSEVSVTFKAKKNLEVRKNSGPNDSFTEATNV
Results filed as inconclusive are left out. Calls of active or inactive are those of the source. How the source made its calls: active means hit-call score of the fitted dose curve at least 0.9, where 1 is the maximum; inconclusive means response in the unintended direction; inactive means score below 0.9.
Outcome codes: label 1 = active, label 0 = inactive

[
  {
    "smiles.notation": "CCCCCCCCCCCC[N+](C)(C)C",
    "measured.target": "Neuropeptide Y receptor type 2 (Homo sapiens) (UniProt P49146)",
    "qualitative.label": "label 1"
  },
  {
    "smiles.notation": "CN(C)C(=O)C1(N2CCCCC2)CCN(CC[C@@]2(c3ccc(Cl)c(Cl)c3)CN(C(=O)c3ccccc3)CCO2)CC1",
    "measured.target": "Neuropeptide Y receptor type 2 (Homo sapiens) (UniProt P49146)",
    "qualitative.label": "label 1"
  },
  {
    "smiles.notation": "CO[C@H]1/C=C/O[C@@]2(C)Oc3c(C)c(O)c4c(O)c(c(/C=N/N5CCN(C)CC5)c(O)c4c3C2=O)NC(=O)/C(C)=C\\C=C\\[C@H](C)[C@H](O)[C@@H](C)[C@@H](O)[C@@H](C)[C@H](OC(C)=O)[C@@H]1C",
    "measured.target": "Neuropeptide Y receptor type 2 (Homo sapiens) (UniProt P49146)",
    "qualitative.label": "label 1"
  },
  {
    "smiles.notation": "CN(C)c1ccc(C(=C2C=CC(=[N+](C)C)C=C2)c2ccc(N(C)C)cc2)cc1",
    "measured.target": "Neuropeptide Y receptor type 2 (Homo sapiens) (UniProt P49146)",
    "qualitative.label": "label 1"
  },
  {
    "smiles.notation": "NCc1cccc(C2CCN(C(=O)c3ccc(C#Cc4ccccc4F)o3)CC2)c1",
    "measured.target": "Neuropeptide Y receptor type 2 (Homo sapiens) (UniProt P49146)",
    "qualitative.label": "label 1"
  },
  {
    "smiles.notation": "O=C(O)Cn1c(=O)n(Cc2ccc(Br)cc2F)c(=O)c2ccc(Cl)cc21",
    "measured.target": "Neuropeptide Y receptor type 2 (Homo sapiens) (UniProt P49146)",
    "qualitative.label": "label 0"
  }
]

---

read-out: Matrix Metallopeptidase 1 (MMP1), MMP1 (gene 4312); assay: BSK_hDFCGF_MMP1: BioMAP Diversity Plus: hDFCGF Assay for Matrix Metallopeptidase 1 (MMP1) Biomarker Activity (AID 2283064); conditions: primary human foreskin fibroblasts; actives raise or lower the signal
Activity calls are given as the source filed them. How the source made its calls: active means hit-call score of the fitted dose curve at least 0.9, where 1 is the maximum; inactive means score below 0.9.
Outcome codes: active, inactive

[
  {
    "compound": "COCC(C)OCC(C)OCC(C)O (stereo not drawn)",
    "qualitative.label": "inactive"
  },
  {
    "compound": "Cc1ncc(CO)c(CO)c1O",
    "qualitative.label": "inactive"
  },
  {
    "compound": "c1ccc(C[n+]2cccc3ccccc32)cc1",
    "qualitative.label": "inactive"
  },
  {
    "compound": "O=C1c2ccccc2C(=O)N1CCc1noc(-c2ccc(CN3CCCCCC3)s2)n1",
    "qualitative.label": "inactive"
  },
  {
    "compound": "O=C(O)Cc1cc(I)c(Oc2ccc(O)c(I)c2)c(I)c1",
    "qualitative.label": "active"
  },
  {
    "compound": "CN(C)C(=O)C1(N2CCCCC2)CCN(CC[C@@]2(c3ccc(Cl)c(Cl)c3)CN(C(=O)c3ccccc3)CCO2)CC1",
    "qualitative.label": "active"
  },
  {
    "compound": "c1ccc2ccccc2c1",
    "qualitative.label": "inactive"
  },
  {
    "compound": "NCc1cccc(C2CCN(C(=O)c3ccc(C#Cc4ccccc4F)o3)CC2)c1",
    "qualitative.label": "active"
  },
  {
    "compound": "CCN(Cc1cccc(S(=O)(=O)O)c1)c1ccc(C(=C2C=CC(=[N+](CC)Cc3cccc(S(=O)(=O)O)c3)C=C2)c2ccccc2S(=O)(=O)[O-])cc1",
    "qualitative.label": "inactive"
  },
  {
    "compound": "CCCCCCCCOC(=O)c1cc(O)c(O)c(O)c1",
    "qualitative.label": "active"
  },
  {
    "compound": "CCCCCCCCN(C)CCCCCCCC",
    "qualitative.label": "inactive"
  },
  {
    "compound": "CCCCOC(=O)c1ccc(O)cc1",
    "qualitative.label": "inactive"
  },
  {
    "compound": "CC(=O)N1CCN(c2ccc(OC[C@H]3CO[C@](Cn4ccnc4)(c4ccc(Cl)cc4Cl)O3)cc2)CC1",
    "qualitative.label": "active"
  },
  {
    "compound": "CC[C@H](NC(=O)c1cc(F)ccc1NS(=O)(=O)c1cccc2cccnc12)c1ccccc1",
    "qualitative.label": "inactive"
  },
  {
    "compound": "CC(C)(C)c1csc(-c2cc3cc(OCc4ccccc4CC(=O)O)ccc3o2)n1",
    "qualitative.label": "active"
  },
  {
    "compound": "O=C(O)Cn1c(=O)n(Cc2ccc(Br)cc2F)c(=O)c2ccc(Cl)cc21",
    "qualitative.label": "inactive"
  },
  {
    "compound": "Cc1cc2c(cc1C(F)(F)F)N(C(=O)Nc1ccc(Oc3cccnc3C)nc1)CC2",
    "qualitative.label": "inactive"
  },
  {
    "compound": "Clc1ccccc1C(c1ccccc1)(c1ccccc1)n1ccnc1",
    "qualitative.label": "active"
  },
  {
    "compound": "Cc1cccc2ccccc12",
    "qualitative.label": "inactive"
  },
  {
    "compound": "CC(C)(C)c1cc(/C=C2\\SC(N)=NC2=O)cc(C(C)(C)C)c1O",
    "qualitative.label": "active"
  },
  {
    "compound": "Clc1cc(Cl)c2c(c1)N=C1CCCCCN1C2",
    "qualitative.label": "inactive"
  },
  {
    "compound": "CCCCCCCC[Si](OCC)(OCC)OCC",
    "qualitative.label": "inactive"
  },
  {
    "compound": "Cc1c2ccccc2c(C)c2c1ccc1ccccc12",
    "qualitative.label": "inactive"
  }
]
